Please respond with reported MFI for every item in the list.
- target.or.test.system: T1, monkey SEMA4D, full length, on CHO-K1 cells (CHO-K1 cSEMA4D) (monkey)
- T1 construct: whole, on cells; also called monkey SEMA4D recombinant cells
- test.description: FACS, CHO-K1 cSEMA4D cells; Ab 66.7 nM
- Protocol: After the cells were counted, they were diluted with PBS to 2×10⁶ cells per milliliter. After washing, 100 μL of diluted and purified leading antibodies was added to each well and the plate was incubated for 1 hour on ice. […] Cells were washed 2 times by centrifugation with FACS buffer. The cells were suspended with 200 μL of FACS buffer, FACS (FACS Verse, purchased from BD) was used to detect and analyze the results.
Please reply with the value in numeric form only.

What does the record list as MFI for 31C11G2 (antibody, V domains shown, Mouse monoclonal antibody purified from hybridoma supernatant on protein A) VH: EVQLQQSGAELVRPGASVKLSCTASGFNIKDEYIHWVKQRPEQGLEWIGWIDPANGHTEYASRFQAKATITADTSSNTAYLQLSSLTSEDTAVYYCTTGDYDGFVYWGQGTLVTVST VL: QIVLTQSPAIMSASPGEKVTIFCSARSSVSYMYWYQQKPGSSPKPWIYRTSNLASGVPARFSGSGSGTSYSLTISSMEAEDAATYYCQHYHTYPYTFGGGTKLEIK ?
4370

What does the record list as MFI for 37C4F7 (antibody, V domains shown, Mouse monoclonal antibody purified from hybridoma supernatant on protein A) VH: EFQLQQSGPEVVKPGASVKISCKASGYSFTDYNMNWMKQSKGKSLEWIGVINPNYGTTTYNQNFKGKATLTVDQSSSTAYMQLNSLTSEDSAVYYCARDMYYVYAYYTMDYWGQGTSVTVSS VL: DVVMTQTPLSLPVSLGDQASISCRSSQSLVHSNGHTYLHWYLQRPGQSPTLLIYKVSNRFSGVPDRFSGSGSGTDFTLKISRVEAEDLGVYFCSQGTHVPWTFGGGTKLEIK ?
2900

What does the record list as MFI for 38H2E3 (antibody, V domains shown, Mouse monoclonal antibody purified from hybridoma supernatant on protein A) VH: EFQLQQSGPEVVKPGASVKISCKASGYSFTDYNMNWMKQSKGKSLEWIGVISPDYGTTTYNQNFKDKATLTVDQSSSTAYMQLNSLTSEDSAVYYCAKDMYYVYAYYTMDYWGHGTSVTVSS VL: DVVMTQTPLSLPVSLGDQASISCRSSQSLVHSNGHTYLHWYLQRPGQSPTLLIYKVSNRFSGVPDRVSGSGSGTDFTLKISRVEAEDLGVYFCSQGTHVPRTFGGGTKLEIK ?
2890

What does the record list as MFI for 32C8F10 (antibody, V domains shown, Mouse monoclonal antibody purified from hybridoma supernatant on protein A) VH: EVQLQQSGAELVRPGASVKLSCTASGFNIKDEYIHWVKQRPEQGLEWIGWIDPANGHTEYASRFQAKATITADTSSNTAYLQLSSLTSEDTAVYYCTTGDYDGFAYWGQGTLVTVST VL: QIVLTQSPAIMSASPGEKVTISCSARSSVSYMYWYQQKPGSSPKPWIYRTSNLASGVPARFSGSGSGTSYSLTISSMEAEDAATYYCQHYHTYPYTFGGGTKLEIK ?
5780

What does the record list as MFI for 37F11F9 (antibody, V domains shown, Mouse monoclonal antibody purified from hybridoma supernatant on protein A) VH: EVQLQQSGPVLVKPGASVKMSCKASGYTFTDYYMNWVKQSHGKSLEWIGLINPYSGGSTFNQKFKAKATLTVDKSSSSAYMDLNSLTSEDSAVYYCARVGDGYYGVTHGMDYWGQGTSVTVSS VL: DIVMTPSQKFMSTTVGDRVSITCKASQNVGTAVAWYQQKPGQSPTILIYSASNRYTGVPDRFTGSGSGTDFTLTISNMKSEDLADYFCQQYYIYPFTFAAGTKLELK ?
2520

Hey, just so you know, these numbers are from patent US20220073608A1.
